Kindly supply the reported MIC values for the records listed here.
System: Lactococcus lactis subsp. lactis MM19
protocolText: Antibiotic MIC plates (resistance profile)
Assay type: cell-based
runConditions: Lactococcus lactis, MM19; GPN3F plate; median of two repetitions; read-out: MIC

# count of solved cases: 2
compound | MIC
CCCCCCCCCC(=O)N[C@@H](Cc1c[nH]c2ccccc12)C(=O)N[C@H](CC(N)=O)C(=O)N[C@@H](CC(=O)O)C(=O)N[C@@H]1C(=O)NCC(=O)N[C@@H](CCCN)C(=O)N[C@@H](CC(=O)O)C(=O)N[C@H](C)C(=O)N[C@@H](CC(=O)O)C(=O)NCC(=O)N[C@H](CO)C(=O)N[C@@H]([C@H](C)CC(=O)O)C(=O)N[C@@H](CC(=O)c2ccccc2N)C(=O)O[C@@H]1C [DAP, Daptomycin] | 0.5 to 1 µg/mL
[H]/N=C(/N)N[C@H]1[C@H](O)[C@@H](O)[C@H](O[C@@H]2O[C@@H](C)[C@](O)(C=O)[C@H]2O[C@@H]2O[C@@H](CO)[C@H](O)[C@@H](O)[C@@H]2NC)[C@@H](N/C(N)=N\[H])[C@@H]1O [STR, Streptomycin] | < 1000 µg/mL

Now, please, on to the next compound.
Asked: Give recorded MIC with Lactococcus lactis subsp. lactis MM19 for the following compound: CC[C@H]1OC(=O)[C@H](C)[C@@H](O[C@H]2C[C@@](C)(OC)[C@@H](O)[C@H](C)O2)[C@H](C)[C@@H](O[C@@H]2O[C@H](C)C[C@H](N(C)C)[C@H]2O)[C@](C)(O)C[C@@H](C)C(=O)[C@H](C)[C@@H](O)[C@]1(C)O [ERY, Erythromycin]
Given back: < 0.25 µg/mL
